assay: Gal4-VP16 luciferase reporter inhibitors, counter-screen for COUP-TFII antagonist project, cell-based, luminescence, HEK293 (AID 687007); settings: at 8.5 µM
This is one part of the list. Activity calls are given as the source filed them. Cut-off read from the data, not from the text of the source: active = inhibition above about 13%; inactive = the rest.
Assign a class; possible classes are active, inactive

**Query** Tell me the assay call for `COc1ccc(S(=O)(=O)Nc2ccc3oc(C)c(C(C)=O)c3c2)cc1` please.
**Result** inactive

* * *

Kindly state inhibition for each of the entries shown.
target: Nuclear receptor subfamily 5 group A member 2 (Homo sapiens) (UniProt O00482); assay: LRH-1 (NR5A2) inverse agonists, retest, confirmation, cell-based, luminescence (AID 651613); conditions: cell-based LRH-1 luciferase reporter, inverse agonism; at 3.6 µM; active compounds read high;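 note: HEK293T cells co-transfected with LRH-1 and StAR promoter luciferase reporter; 0% = vehicle wells and 100% = parental cells lacking receptor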
Sequence (O00482 whole entry, looked up): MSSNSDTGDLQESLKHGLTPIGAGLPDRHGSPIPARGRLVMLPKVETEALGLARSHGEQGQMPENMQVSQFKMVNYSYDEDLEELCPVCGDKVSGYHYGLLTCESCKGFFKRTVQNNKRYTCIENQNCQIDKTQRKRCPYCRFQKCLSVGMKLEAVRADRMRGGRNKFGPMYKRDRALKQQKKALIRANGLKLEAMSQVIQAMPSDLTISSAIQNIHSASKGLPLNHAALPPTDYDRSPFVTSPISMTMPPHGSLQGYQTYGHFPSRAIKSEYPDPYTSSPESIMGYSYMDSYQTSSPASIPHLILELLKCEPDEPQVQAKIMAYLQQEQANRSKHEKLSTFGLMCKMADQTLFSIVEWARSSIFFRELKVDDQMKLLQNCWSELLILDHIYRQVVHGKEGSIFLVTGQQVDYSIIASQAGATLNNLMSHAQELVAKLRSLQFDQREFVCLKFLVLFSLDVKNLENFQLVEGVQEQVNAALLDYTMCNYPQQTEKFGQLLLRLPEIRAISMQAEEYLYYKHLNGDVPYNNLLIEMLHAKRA
Numbers only, in %.

# compound, recorded_endpoint, measured_number
data = [
    ("CCCn1c2c(c(=N)c3c1CCC3)CCCC2", "inhibition", 61.8),
]

Provide reported inhibition for each item, in the same order as listed.
1. CCOc1ccc(C(C)=O)cc1COC(=O)c1cc([N+](=O)[O-])ccc1N1CCOCC1
2. CC(Cl)C(=O)Nc1ncc(C(F)(F)F)cc1Cl (stereo not drawn)

**Result**
[58.2, 58.9]

* * *

system: transactivating tegument protein VP16 (Human herpesvirus 1), Gal4-VP16 luciferase reporter; experiment: VP16 transactivation inhibitors, counter-screen for SRC3 inhibitor project, cell-based, luminescence, high throughput (AID 588794); conditions: mammalian cells, VP16-driven luciferase reporter luminescence; at 3.6 µM
Activity calls are given as the source filed them. No stated cut-off is given here; in the data, active means inhibition above about 30%; inactive means the rest.
Reply using exactly one outcome from active, inactive

// known answers, use as guide
# compound, label
rows = [
    ("COc1ccccc1C(=O)N(CCC1CCCN1C)c1nc2ccccc2s1 (centres undefined)", "inactive"),
    ("COc1ccc(-c2cn[nH]c2-c2ccc(OC)cc2O)cc1", "inactive"),
    ("COc1ccc(N/N=C(\\C#N)C(=N)SCc2ccccc2)cc1", "active"),
    ("COc1cccc(/C=N/NC(=O)c2cc(-c3cccn3C)n[nH]2)c1O", "active"),
]

**Query** Record request — test call for `CC(/C=C1\SC(=O)N(CCCC(=O)O)C1=O)=C\c1ccccc1`
**Result** active

**Query** Each compound tested received a call. Report the one for `Cc1ccc(-c2cc3cccc[n+]3cc2-c2ccc(C)cc2)cc1` .
**Result** active

**Query** Name the outcome recorded for `Cc1ccc(-c2cn(-c3ccc(OC(F)F)cc3)c3[n+]2CCCCC3)cc1` in the assay.
**Result** inactive

**Query** Hello, I am checking results. What call was entered for `Cn1c(C(=O)O)c(CC(=O)Nc2ccc3c(c2)OCCO3)c2ccccc21` ?
**Result** inactive

* * *

target: Nuclear receptor coactivator 2 (Homo sapiens) (UniProt Q15596); assay: SRC2 coactivator transcriptional activity inhibitors, confirmation, cell-based, luminescence, HEK293, triplicate (AID 652008); settings: HEK293 GAL4-SRC2 luciferase reporter, at 8.9 µM, active compounds read high;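 note: 0% = DMSO-treated cells and 100% = Gossypol at 36 µM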
Sequence (Q15596 whole entry, looked up, the tested form may be a part): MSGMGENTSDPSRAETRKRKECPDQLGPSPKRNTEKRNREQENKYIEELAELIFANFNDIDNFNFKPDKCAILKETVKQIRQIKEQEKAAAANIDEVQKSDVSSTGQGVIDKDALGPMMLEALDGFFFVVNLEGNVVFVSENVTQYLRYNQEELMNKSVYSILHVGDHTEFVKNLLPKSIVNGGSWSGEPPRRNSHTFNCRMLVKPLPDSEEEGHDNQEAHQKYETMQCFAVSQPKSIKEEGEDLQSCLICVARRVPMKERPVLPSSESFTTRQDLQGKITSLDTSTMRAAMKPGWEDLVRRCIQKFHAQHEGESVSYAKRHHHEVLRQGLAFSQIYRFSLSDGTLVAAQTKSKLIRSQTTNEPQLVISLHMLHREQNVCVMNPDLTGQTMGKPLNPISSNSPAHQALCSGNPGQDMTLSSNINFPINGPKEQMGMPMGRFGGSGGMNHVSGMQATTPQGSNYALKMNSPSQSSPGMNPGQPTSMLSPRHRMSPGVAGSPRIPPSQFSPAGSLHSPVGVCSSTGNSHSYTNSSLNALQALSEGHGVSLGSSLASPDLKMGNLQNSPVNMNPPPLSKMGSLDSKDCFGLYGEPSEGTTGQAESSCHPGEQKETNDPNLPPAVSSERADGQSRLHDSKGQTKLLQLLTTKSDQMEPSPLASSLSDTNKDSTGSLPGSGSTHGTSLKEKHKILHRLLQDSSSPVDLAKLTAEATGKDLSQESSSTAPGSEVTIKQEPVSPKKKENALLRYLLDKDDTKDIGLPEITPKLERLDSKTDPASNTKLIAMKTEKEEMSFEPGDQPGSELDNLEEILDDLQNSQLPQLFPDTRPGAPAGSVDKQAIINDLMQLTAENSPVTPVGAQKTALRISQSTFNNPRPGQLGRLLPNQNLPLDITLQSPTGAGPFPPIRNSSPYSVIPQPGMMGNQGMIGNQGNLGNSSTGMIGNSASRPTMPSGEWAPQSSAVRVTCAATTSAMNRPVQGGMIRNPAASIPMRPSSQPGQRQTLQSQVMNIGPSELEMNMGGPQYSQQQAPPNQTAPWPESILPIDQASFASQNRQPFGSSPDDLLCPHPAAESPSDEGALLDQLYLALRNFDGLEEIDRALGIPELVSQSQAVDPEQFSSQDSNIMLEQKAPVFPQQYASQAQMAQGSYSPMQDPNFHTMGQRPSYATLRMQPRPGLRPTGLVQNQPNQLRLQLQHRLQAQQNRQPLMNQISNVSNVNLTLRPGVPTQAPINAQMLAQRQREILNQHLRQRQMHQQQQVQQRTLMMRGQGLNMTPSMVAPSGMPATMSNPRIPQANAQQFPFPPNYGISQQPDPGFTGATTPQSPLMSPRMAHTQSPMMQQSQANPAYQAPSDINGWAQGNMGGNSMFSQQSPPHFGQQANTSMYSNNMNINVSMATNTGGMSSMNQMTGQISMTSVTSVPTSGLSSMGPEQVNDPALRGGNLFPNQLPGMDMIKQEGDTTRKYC
recorded_endpoint: inhibition (%)
One number for each entry, in %.

Some compounds with recorded inhibition:
# compound, inhibition, %
rows = [
    ("CC(C)(C)C(=O)Nc1cc2nn(-c3ccccc3)nc2cc1Cl", 90.3),
    ("COc1ccc(NC(=O)C2(C)Cc3c(-c4cccc(NC(C)=O)c4)ccnc3O2)cc1 (stereo not drawn)", 1.6),
    ("CC(C)CCn1cnc2c(sc3nc4c(cc32)CSC(C)(C)C4)c1=O", -11.9),
    ("COc1cc(OC)c(CN2CCc3c([nH]c4ccccc34)C2)cc1Br", -4.79),
    ("C=C1C(=O)[C@]23C[C@H]1CCC2[C@@]1(C)C(C[C@@H]3O)[C@](C)(C(=O)OC)CC[C@@H]1O (stereo partly drawn)", 49.3),
]

Answer for every listed entry: what is its inhibition? The entries follow.
1. Cc1ccc([C@@H]2CC=C(C(=O)O)[C@H](c3ccccc3)N2S(=O)(=O)c2ccccc2C)cc1
2. O=C1NC(=S)N/C1=C/c1cccnc1
3. CCOC(=O)C1=C[C@@H](C(C)(C)C)N(S(=O)(=O)c2ccc(C)cc2)[C@H]1c1ccc(Cl)c(Cl)c1
4. COc1cc(C(O)c2nc(-c3ccncc3)cs2)ccc1F (stereo not drawn)
5. COc1cccc(N2CCN(c3ncnc4c3[nH]c3ccccc34)CC2C)c1 (stereo not drawn)
6. COc1ccc(CC(=O)NNC(=O)c2ccc(Br)o2)cc1
7. O=C(NCCCN1CCOCC1)c1cc(-c2ccc(Br)cc2)on1
8. CCCCN1CC(COCc2ccccc2)Oc2cccc(NCc3cc(OC)c(OC)c(OC)c3)c2S1(=O)=O (stereo not drawn)

**Result**
[-13, 43.8, 17.4, 20.8, 12.8, -27.1, 13.1, 13.4]

* * *

system: Nuclear hormone receptor DAF-12 (Haemonchus contortus); assay: H. contortus DAF-12 receptor agonists, confirmation, cell-based, luminescence, HEK293, lit1-tk-luc, triplicate (AID 743032); conditions: HEK293 hcDAF-12 lit1-tk-luc reporter, at 6.8 µM, active compounds read high, % of Δ7-dafachronic acid response;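 note: 0% = DMSO only wells and 100% = 3 µM Δ7-dafachronic acid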
The list shows a part of the results.
Field: activation. Provide a value for each of the molecules that follow.
Give bare numbers, in %.

# molecule, result_unit, measured_number
data = [
    ("OC(c1ccccc1)c1nc(-c2cnc3ccccc3c2)cs1 (stereo not given)", "%", 6.14),
    ("Cc1cccc(C(=O)N2CCc3c([nH]c4ccccc34)C2CC(C)C)n1 (stereo not given)", "%", 6.29),
]

Required: activation, one value per molecule below.
1. Brc1ccc(-c2noc(-c3ccccc3)n2)o1
2. Cn1c(=NC(=O)C2CC2)sc2cc(F)cc(F)c21
3. COc1ccc(-c2csc(Nc3ccccn3)n2)cc1
4. N#CC1=C(N)Oc2c(sc3ccccc23)C1c1ccco1 (stereo not given)

**Result**
7.78
5.5
6.22
1.83

Provide each entry's activation from the list below.
1. O=C(c1cc(-c2ccccc2O)on1)N1CCCC1
2. Cc1cccc(NC(=O)Nc2ccc3c(c2)OCO3)n1
3. Cn1ccnc1SCC(=O)Nc1ccc2c(c1)OCCO2
4. O=c1[nH]c(CCl)nc2cc(-c3ccc(Cl)cc3)sc12
5. O=C(CSC(=S)N1CCOCC1)c1ccccc1
6. COc1cc2ccccc2cc1C(=O)Nc1ccccc1C
7. Cc1ccc(SCCSc2ncccn2)cc1
8. COc1ccccc1-c1nnc(NC(=O)c2ccc3ncsc3c2)o1

**Result**
[6.57, 4.11, 2.69, 1.27, 5.12, 9.11, 7.13, 10.3]

**Query** Recorded activation for O=C(NC(Cc1c[nH]c2ccccc12)C(=O)O)/C(=C/c1ccco1)NC(=O)c1ccccc1 (stereo not given) , please?
**Result** 3.64

* * *

assay: VP16 transactivation inhibitors, counter-screen for SRC1 inhibitor project, cell-based, luminescence, high throughput (AID 588824); details: cell-based VP16 transactivation luciferase luminescence; at 3.6 µM; active compounds read high
Label scheme for inhibition: lower than 10% is no, 10% and above is yes.

**Query** Hi team, for COc1cccc(N(C(=O)CCl)C(C(=O)NCCc2ccccc2)c2cccs2)c1 (stereo unspecified) , is the recorded inhibition at or above 10%?
**Result** yes

**Query** Does the molecule `Cc1ccc(NC(=O)c2cc(=O)c3ccccc3o2)cc1S(=O)(=O)N1CCCCC1` have recorded inhibition that is 10% or more?
**Result** no

**Query** Is inhibition for `Cc1cc(NCc2cccnc2)no1` at or above 10%?
**Result** no

**Query** Decide: inhibition of `C[C@H]1O[C@@H](O[C@H]2[C@@H](O)C[C@H](O[C@H]3[C@@H](O)C[C@H](O[C@H]4CC[C@@]5(C)[C@H](CC[C@@H]6[C@@H]5C[C@@H](O)[C@]5(C)[C@@H](C7=CC(=O)OC7)CC[C@]65O)C4)O[C@@H]3C)O[C@@H]2C)C[C@H](O)[C@@H]1O` >= 10%?
**Result** yes

**Query** Dear colleague, could you confirm whether `CCOc1cc(Br)cc(/C=N/NC(=O)c2cccnc2)c1O` has inhibition at or above 10%?
**Result** yes

**Query** Threshold query (inhibition >= 10%) on `N#Cc1c2ccc(O)cc2n2ccccc12`
**Result** yes

* * *

experiment: beta-lactamase reporter inhibitors in CHO cells, confirmation, artefact control for NOD2-RIPK2 interaction inhibitor project, cell-based, CHO-K1 CMV-bla, CCF4 FRET, fluorescence (AID 624371); conditions: CCF4 FRET ratio, counterscreen, at 4.98 µM;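 note: 0% = DMSO only wells and 100% = clavulanate high control wells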
This is one part of the list. Calls of active or inactive are those of the source.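 How the source made its calls: active means mean inhibition above the low-control mean inhibition plus three low-control SD (cut at about 11% in these data); inactive means the rest.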
The reply should name one outcome from active, inactive

For orientation, consider the following solved cases.
# compound, label
data = [
    ("CC[C@H]1CN2CCc3cc(OC)c(OC)cc3[C@@H]2C[C@@H]1C[C@H]1NCCc2cc(OC)c(OC)cc21", "inactive"),
    ("COc1cc(NS(=O)(=O)c2ccc3ccccc3c2)c2ncccc2c1", "active"),
]

**Query** # lookup: test call for O=C1NC(=O)C2C1C(c1ccc([N+](=O)[O-])cc1)=NN2Cc1ccccc1 (stereo unspecified)
**Result** active

**Query** Look up the recorded call for COc1ccc2c(c1OC)C(=O)OC2Nc1nc(-c2ccccc2)cs1 (stereo unspecified) in this test.
**Result** inactive

**Query** Hi team, can someone confirm the assay call for `COc1ccccc1CSc1ncc(-c2ccc([N+](=O)[O-])cc2)[nH]1` ?
**Result** active

**Query** Assay outcome for Cc1cc2oc3ccc(NCCC4CCCN4C)cc3c(=O)c2cc1C (stereo unspecified) : what was it?
**Result** active
